target: Serine/threonine-protein kinase PLK1 (Homo sapiens) (UniProt P53350); test: qHTS for Inhibitors of PLK1-PDB (polo-like kinase 1 - polo-box domain): Primary Screen; conditions: Plk1 PBD binding of FITC phosphopeptide, fluorescence polarization; note: series mostly up to about 57 µM; nearly all actives have a fitted effect of over 65% in size
Sequence (P53350 whole entry, looked up, the tested form may be a part): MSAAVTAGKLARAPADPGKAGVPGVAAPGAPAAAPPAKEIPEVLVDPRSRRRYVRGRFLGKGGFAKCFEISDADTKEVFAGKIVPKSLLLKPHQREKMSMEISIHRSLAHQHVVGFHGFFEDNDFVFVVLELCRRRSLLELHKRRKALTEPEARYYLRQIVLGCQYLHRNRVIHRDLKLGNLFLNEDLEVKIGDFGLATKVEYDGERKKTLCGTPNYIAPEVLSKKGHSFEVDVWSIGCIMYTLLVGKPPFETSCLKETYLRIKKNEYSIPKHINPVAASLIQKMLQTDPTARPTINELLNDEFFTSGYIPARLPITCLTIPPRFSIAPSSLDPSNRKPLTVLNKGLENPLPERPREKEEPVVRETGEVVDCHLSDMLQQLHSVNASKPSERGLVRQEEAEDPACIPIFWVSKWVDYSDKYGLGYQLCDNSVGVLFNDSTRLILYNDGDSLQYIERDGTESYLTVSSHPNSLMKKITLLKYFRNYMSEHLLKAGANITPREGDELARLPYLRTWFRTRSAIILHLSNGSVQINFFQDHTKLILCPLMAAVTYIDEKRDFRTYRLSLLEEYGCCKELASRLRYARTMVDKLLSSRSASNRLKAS
The whole screen tested about 360,000 compounds, of which about 10,000 (2.8%) were called active. Inconclusive results (about 4%) are left out. This is one part of a sample in which actives are shown more often than they occur.
Label true for high-side max response, negative = inhibition (at or above -10%) and false for low-side max response, negative = inhibition (below it).

CCOC(=O)C(=O)Nc1nc(-c2ccccc2)c(CC)s1
false
CCOc1ccc(-c2nc(C)sc2CC(=O)O)cc1
true
CCc1ccc(NC(=O)C(=O)NNC(=O)c2cccs2)cc1
false
CCOC(=O)c1c(N)sc2c1CCCC2=O
true
COc1ccc(OCC(=O)NNC(=O)C2CCC2)cc1
true

Check if max response, negative = inhibition >= -10% (inclusive). Item: "CCc1nnc(NS(=O)(=O)c2ccc(NC(=O)c3cccc(OC(F)(F)C(F)F)c3)cc2)s1" false

Check if max response, negative = inhibition >= -10% (inclusive). Item: "O=C(NNS(=O)(=O)Cc1ccccc1)c1ccc([N+](=O)[O-])cc1" false

Check if max response, negative = inhibition >= -10% (inclusive). Item: "COC(=O)c1sccc1NC(=O)c1ccc(Cl)cc1" true

Check if max response, negative = inhibition >= -10% (inclusive). Item: COc1ccc(C2CC(c3ccccc3)=NN2C(=O)COC(=O)COc2ccccc2)cc1 (configuration not stated) true

Check if max response, negative = inhibition >= -10% (inclusive). Item: "COc1ccc(C(=O)NNC(=O)c2cc(C)[nH]n2)cc1" true

Check if max response, negative = inhibition >= -10% (inclusive). Item: "O=C(Nc1n[nH]c(C(F)(F)F)n1)c1cccs1" false

Check if max response, negative = inhibition >= -10% (inclusive). Item: "CN(CCc1ccccc1)c1ccc([N+](=O)[O-])cn1" true

Source listed as PubChem BioAssay AID720504.
